- System: Cy3-labeled goat anti-mouse immunoglobulin (IgG)
- PROTOCOL_SUMMARY: Peptide array of C1q subunit 15-mers probed with Cy3-labeled immunoglobulin
- Type: binding
- COND: peptide spots on glass array, 4° C., 12 hours, background fluorescence intensity is 2.6
Recorded Fluorescence intensity by entry

A selection of reference data follows.
- STGKFTCKVPGLYYF (Immunoglobulin binding peptide) [R5]: 65,311
- FTCKVPGLYYFTYHA (Immunoglobulin binding peptide) [R4]: 65,311
- CKVPGLYYFVYHASH (Immunoglobulin binding peptide) [R6]: 65,313
- KFTCKVPGLYYFVYH (Immunoglobulin binding peptide) [compound 245]: 65,311

Query sequence follows.
Query: Look up Fluorescence intensity with Cy3-labeled goat anti-mouse immunoglobulin (IgG) for this sequence: SGKFTCKVPGLYYFT (Immunoglobulin binding peptide) [R3]
Reply: 65,300
